# test target: Capsid scaffolding protein (Human herpesvirus 1 (strain 17))
# Sequence (P10210 whole entry): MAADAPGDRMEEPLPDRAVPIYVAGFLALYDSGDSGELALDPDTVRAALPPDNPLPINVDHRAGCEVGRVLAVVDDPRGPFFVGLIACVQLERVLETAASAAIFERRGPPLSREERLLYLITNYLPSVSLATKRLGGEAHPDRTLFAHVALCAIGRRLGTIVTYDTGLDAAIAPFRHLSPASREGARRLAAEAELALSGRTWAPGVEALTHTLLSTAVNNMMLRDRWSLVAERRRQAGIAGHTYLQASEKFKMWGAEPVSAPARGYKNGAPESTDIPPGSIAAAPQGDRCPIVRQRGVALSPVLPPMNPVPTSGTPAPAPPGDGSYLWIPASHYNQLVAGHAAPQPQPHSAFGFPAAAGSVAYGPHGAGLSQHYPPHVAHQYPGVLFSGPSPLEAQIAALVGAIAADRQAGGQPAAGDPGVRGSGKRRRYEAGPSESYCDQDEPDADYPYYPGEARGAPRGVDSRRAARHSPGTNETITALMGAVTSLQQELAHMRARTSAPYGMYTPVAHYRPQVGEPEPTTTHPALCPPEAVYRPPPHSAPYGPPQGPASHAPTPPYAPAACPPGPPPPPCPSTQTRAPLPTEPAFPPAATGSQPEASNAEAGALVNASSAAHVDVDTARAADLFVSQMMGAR
# run description: Zhang-Poorman Assay
# condition: pH 5.52
Ki values by entry
# value in nM; strip the unit string

Example entries and their recorded answers appear below.
compound: CC(C)C[C@@H](NC(=O)[C@H](NC(=O)CCCCCCCCCCCCCCC(=O)N[C@H](CC(N)=O)C(=O)N[C@@H](Cc1ccccc1)C(=O)O)C(C)O)C(=O)NCCc1ccc(N)cc1 (stereo not given in full)
test target: Capsid scaffolding protein (Human herpesvirus 1 (strain 17))
unit spec: nM
Ki: 650
//
compound: CC(C)C[C@@H](NC(=O)[C@H](NC(=O)CCCCCCCCCCCCCCC(=O)N[C@H](CC(N)=O)C(=O)N[C@@H](Cc1ccccc1)C(=O)O)C(C)O)C(=O)NCCc1ccc(O)c(O)c1 (stereo not given in full)
test target: Capsid scaffolding protein (Human herpesvirus 1 (strain 17))
unit spec: nM
Ki: 600
//
compound: CC(C)C[C@@H](NC(=O)[C@H](NC(=O)CCCCCCCCCCCCCCC(=O)N[C@H](CC(N)=O)C(=O)N[C@@H](Cc1ccccc1)C(=O)O)C(C)O)C(=O)NCCc1ccc(Oc2ccc(O)cc2)cc1 (stereo not given in full)
test target: Capsid scaffolding protein (Human herpesvirus 1 (strain 17))
unit spec: nM
Ki: 96
//
compound: CC(C)C[C@@H](NC(=O)[C@H](NC(=O)CCCCCCCCCCCCCCC(=O)N[C@H](CC(N)=O)C(=O)N[C@@H](Cc1ccccc1)C(=O)O)C(C)O)C(=O)NCCc1ccc(Oc2ccccc2)cc1 (stereo not given in full)
test target: Capsid scaffolding protein (Human herpesvirus 1 (strain 17))
unit spec: nM
Ki: 175

I'd like to know its Ki. The compound in question is COc1ccc(CCNC(=O)[C@@H](CC(C)C)NC(=O)[C@H](NC(=O)CCCCCCCCCCCCCCC(=O)N[C@H](CC(N)=O)C(=O)N[C@@H](Cc2ccccc2)C(=O)O)C(C)O)cc1 (stereo not given in full)
720

----------
# test target: Capsid scaffolding protein (Human herpesvirus 1 (strain 17))
# run description: Competitive Assay
# condition: pH 5.52
Numbered stars: 1 amine (or outer) side, 2 acyl side, 3 side chain; on linkers, the order of the positions; unused ones are H or OH. Bridge positions count the residues as written; N and C are the ends. Square brackets hold non-standard residues; d marks the D form. Peptide text beside a SMILES is read from it. I, II: the chains in the order shown. * marks the point of attachment. C16 diacid = O=C(O)CCCCCCCCCCCCCCC(=O)*; X1 = NC(O)C[C@H](N[*:1])C(=O)[*:2]
property measured: Ki (µM)
Numbers only here, please. The scale is µM.

Report Ki for CC(C)C[C@H](NC(=O)[C@@H](NC(=O)CCCCCCCCCCCCCCC(=O)N[C@H](CC(N)=O)C(=O)N[C@H](Cc1ccccc1)C(=O)O)C(C)O)C(=O)N[C@@H](Cc1ccccc1)C(N)=O (some centres undefined) please.
3

Please look up its Ki: CC(C)C[C@@H](NC(=O)[C@H](NC(=O)CCCCCCCCCCCCCCC(=O)N[C@H](CC(N)=O)C(=O)N[C@@H](Cc1ccccc1)C(=O)O)C(C)O)C(=O)NCCc1cccc(O)c1 (some centres undefined)
1.13

Item under review: CC[C@H](C)[C@H](NC(=O)[C@H](CCC(N)=O)NC(=O)[C@@H]1CCCN1C(=O)CCCCCCCCCCCCCCC(=O)N[C@@H](CO)C(=O)N[C@H](C(=O)N[C@H](C(=O)N[C@@H](CC(N)O)C(=O)N[C@@H](Cc1ccccc1)C(=O)O)C(C)C)[C@@H](C)O)C(=O)N[C@H](C(=O)N[C@@H](CC(C)C)C(=O)N[C@@H](Cc1c[nH]c2ccccc12)C(=O)O)[C@@H](C)O (some centres undefined) [Pepstatin analog, 1] (I: PQITLW-OH / II: STV[X1]F-OH; linker I:N-II:N via C16 diacid) . Reported Ki?
0.22

Look up Ki: COc1cccc(CCNC(=O)[C@@H](CC(C)C)NC(=O)[C@H](NC(=O)CCCCCCCCCCCCCCC(=O)N[C@H](CC(N)=O)C(=O)N[C@@H](Cc2ccccc2)C(=O)O)C(C)O)c1 (some centres undefined)
1.29

----------
# IC50 annotations
# test target: Capsid scaffolding protein (Human herpesvirus 1 (strain 17), UniProt P10210)
# Sequence (P10210 whole entry): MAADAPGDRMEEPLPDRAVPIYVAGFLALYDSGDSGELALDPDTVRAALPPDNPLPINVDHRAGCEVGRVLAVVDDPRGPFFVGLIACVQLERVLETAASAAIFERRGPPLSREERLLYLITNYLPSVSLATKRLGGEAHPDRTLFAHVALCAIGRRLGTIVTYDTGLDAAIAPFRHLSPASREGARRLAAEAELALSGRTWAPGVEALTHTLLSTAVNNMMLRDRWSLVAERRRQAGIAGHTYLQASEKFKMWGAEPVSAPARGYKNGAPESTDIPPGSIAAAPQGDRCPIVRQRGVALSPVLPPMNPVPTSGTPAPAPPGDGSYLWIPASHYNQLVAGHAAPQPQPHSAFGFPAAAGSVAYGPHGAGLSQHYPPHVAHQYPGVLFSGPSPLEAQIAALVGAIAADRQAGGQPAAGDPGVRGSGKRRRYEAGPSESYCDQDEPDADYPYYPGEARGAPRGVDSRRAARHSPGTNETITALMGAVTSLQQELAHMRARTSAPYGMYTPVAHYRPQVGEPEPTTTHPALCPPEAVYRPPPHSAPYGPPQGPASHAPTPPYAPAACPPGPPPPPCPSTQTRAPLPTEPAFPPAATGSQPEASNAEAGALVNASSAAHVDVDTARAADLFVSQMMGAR
# run description: Competitive Assay
# condition: pH 5.52
Numbered stars: 1 amine (or outer) side, 2 acyl side, 3 side chain; on linkers, the order of the positions; unused ones are H or OH. Bridge positions count the residues as written; N and C are the ends. Square brackets hold non-standard residues; d marks the D form. Peptide text beside a SMILES is read from it. I, II: the chains in the order shown. * marks the point of attachment. C16 diacid = O=C(O)CCCCCCCCCCCCCCC(=O)*; X1 = NC(O)C[C@H](N[*:1])C(=O)[*:2]
// units = µM; emit number, no label

molecule: CC(C)C[C@@H](NC(=O)[C@H](NC(=O)CCCCCCCCCCCCCCC(=O)N[C@H](CC(N)=O)C(=O)N[C@@H](Cc1ccccc1)C(=O)O)C(C)O)C(=O)NCCc1cccc(O)c1 (stereo not given in full) [Pepstatin analog, 4]
IC50 (µM): 4.4

Next:
# lookup: IC50 of CC[C@H](C)[C@H](NC(=O)[C@H](CCC(N)=O)NC(=O)[C@@H]1CCCN1C(=O)CCCCCCCCCCCCCCC(=O)N[C@@H](CO)C(=O)N[C@H](C(=O)N[C@H](C(=O)N[C@@H](CC(N)O)C(=O)N[C@@H](Cc1ccccc1)C(=O)O)C(C)C)[C@@H](C)O)C(=O)N[C@H](C(=O)N[C@@H](CC(C)C)C(=O)N[C@@H](Cc1c[nH]c2ccccc12)C(=O)O)[C@@H](C)O (stereo not given in full) [Pepstatin analog, 1] (I: PQITLW-OH / II: STV[X1]F-OH; linker I:N-II:N via C16 diacid)
0.35

----------
# test target: Capsid scaffolding protein (Human herpesvirus 1 (strain 17))
# run description: Competitive Assay
# condition: pH 5.52
# pIC50 per entry
Bear in mind: pIC50 is minus log10 of a mol/L concentration; give just that figure.

Give the measured pIC50 of COc1cccc(CCNC(=O)[C@@H](CC(C)C)NC(=O)[C@H](NC(=O)CCCCCCCCCCCCCCC(=O)N[C@H](CC(N)=O)C(=O)N[C@@H](Cc2ccccc2)C(=O)O)C(C)O)c1 (stereo partly drawn) .
5.31

Quick one: pIC50 of CC(C)C[C@H](NC(=O)[C@@H](NC(=O)CCCCCCCCCCCCCCC(=O)N[C@H](CC(N)=O)C(=O)N[C@@H](Cc1ccccc1)C(=O)O)C(C)O)C(=O)NCCc1ccccc1 (stereo partly drawn) ?
5.24

Can you look up the measured pIC50 of CC(C)C[C@H](NC(=O)[C@@H](NC(=O)CCCCCCCCCCCCCCC(=O)N[C@H](CC(N)=O)C(=O)N[C@H](Cc1ccccc1)C(=O)O)C(C)O)C(=O)N[C@@H](Cc1ccccc1)C(N)=O (stereo partly drawn) for me?
5.23
